# target_or_test_system: T1, A1 protein (mouse, residues 1-152, P104K C113S, used as wild type) (mouse)
# T1 sequence (Q07440 1-152 with P104K C113S, looked up): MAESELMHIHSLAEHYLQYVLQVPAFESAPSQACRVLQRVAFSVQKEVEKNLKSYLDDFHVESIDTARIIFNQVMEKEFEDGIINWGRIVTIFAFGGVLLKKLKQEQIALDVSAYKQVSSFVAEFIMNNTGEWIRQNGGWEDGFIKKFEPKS
# experimental_protocol: stopped-flow fluorescence kinetics; association; TAMRA-labelled peptide with folded partner at least 10-fold higher (pseudo-first-order); kon from the gradient of kobs versus partner concentration; 25 °C; 50 mM sodium phosphate, 0.05% (v/v) Tween 20, pH 7.0
Where no end group is shown, it is not given here. The star is where a group is joined. TAMRA = 5-carboxytetramethylrhodamine, CN(C)c1ccc2c(-c3ccc(C(=O)*)cc3C(=O)[O-])c3ccc(=[N+](C)C)cc-3oc2c1
recorded_metric: kon (M⁻¹ s⁻¹)

| binder | readout_units | kon |
| --- | --- | --- |
| {TAMRA}-SESQEEIIHNIARHLAQIGDEMDHNIQPTLVRQLA (BID, mouse, residues 76-110, UniProt P70444; also called WT; source: synthetic peptide (Biomatik)) [BID peptide (mouse, residues 76-110), TAMRA-labelled] | M⁻¹ s⁻¹ | 8.2e+06 |
| {TAMRA}-SESQEEIIHNIARHAAQIGDEMDHNIQPTLVRQLA (peptide, UniProt P70444 76-110, looked up, BID, mouse, residues 76-110, UniProt P70444; source: synthetic peptide (Biomatik)) [BID L90A peptide, TAMRA-labelled] | M⁻¹ s⁻¹ | 3.1e+06 |

1. {TAMRA}-RVEEEEWAREIGAQLRRAADDLNAQYEARRQEEQH [PUMA R154A peptide (on the M144A wild type), TAMRA-labelled]
2. {TAMRA}-RVEEEEWAREIGAQLRRAADALNAQYERRRQEEQH [PUMA D147A peptide (on the M144A wild type), TAMRA-labelled]
I'm curious, which of these has a smaller kon number: 1 or 2 ? API: response body contains the label of the selected item. 1

1. {TAMRA}-RVEEEEWAREIGAQLRRAADDLNGQYERRRQEEQH [PUMA A150G peptide (on the M144A wild type), TAMRA-labelled]
2. {TAMRA}-RVEEEEWARAIGAQLRRAADDLNAQYERRRQEEQH [PUMA E136A peptide (on the M144A wild type), TAMRA-labelled]
I'm curious, which of these has a smaller kon number: 1 or 2 ? API: response body contains the label of the selected item. 1
(1: 4.84e+06 M⁻¹ s⁻¹, 2: 1.04e+07 M⁻¹ s⁻¹)

The reported measurements were obtained from paper PMC6016464.
